The origin of these recorded values is patent US20230183352A1.

- testedSystem: T1, Claudin 18.2 (CLDN18.2), expressed on CHOS-CLDN 18.2 / HEK293-CLDN 18.2 / HCC827-CLDN 18.2 cells (human, UniProt P56856-2 1-261)
- T1 construct: whole, on cells; The species is not repeated for the CHOS-CLDN 18.2 cells; also called claudin-18A2
- testMethodNotes: FACS, CHOS-CLDN18.2 cells
quantityMeasured: max
# print the numeric value only

The recorded max for QP201202 (antibody, human IgG1, V domains shown, Chimeric; also called 44C6) VH: EVQLQQSGPELVKPGASVKMSCKASGYTFTNYFVHWVKQKPGQGLEWIGYINPYNDDTKYNEKFKGKATLTSDKSSSTAYMDLSSLTSEDSAVYYCLSLRFFAYWGQGTLVTVSA VL: DIVMTQSPSSLTVTAGEKVTMSCKSSQSLLNSGNQKNYLTWYQQKPGQAPKLLIYWASTRESGVPDRFIGSGSGTDFTLTISHVQAEDLAVYFCQNDYSYPLTFGAGTNLELK is 113000
